Where do the numbers come from? From PubChem BioAssay (NCI).

Would you kindly list growth inhibition for each of these molecules?
experiment: NCI Yeast Anticancer Drug Screen. Data for the sgs1 mgt1 strain (AID 161);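 note: 0% = growth of cultures given vehicle only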; conditions: S. cerevisiae sgs1 mgt1 strain, at 50.0 µM, stronger effect = higher value
This is part of a sample that, as a whole, favours compounds with a hit. Of some 79,000 tested, about 15% had one in any assay.
Answers are plain numbers, in %.

- O=C1CCCc2cc3c(cc21)CC1(C3)Cc2cc3c(cc2C1)C(=O)CCC3: -5.8

Give me growth inhibition for each of these molecules, listed below.
1. O=C(O)c1ccc([C@@H]2C(=O)N(O)[C@@H]3C=CC[C@@H]32)cc1
2. O=c1[nH]c2cc([N+](=O)[O-])ccc2nc1/C(=N/Nc1ccccc1)C(O)c1ccc(C(O)/C(=N\Nc2ccccc2)c2cnc3cc([N+](=O)[O-])ccc3n2)cc1 (stereo unspecified)
3. C=CCOC(=O)/C=C\c1ccccc1OC
4. CCCCCC(Oc1ccc(Cl)cc1)C(=O)OCC (stereo unspecified)
5. c1ccc(CN2COc3c(ccc4c5c(ccc34)CN(Cc3ccccc3)CO5)C2)cc1

[-7.45, -11.4, 16.6, 14.9, -37.5]
